Entry source: ChEMBL document CHEMBL1144528

- Measured On: Sodium-dependent serotonin transporter (Macaca mulatta, UniProt Q9MYX0)
- Sequence (Q9MYX0 whole entry): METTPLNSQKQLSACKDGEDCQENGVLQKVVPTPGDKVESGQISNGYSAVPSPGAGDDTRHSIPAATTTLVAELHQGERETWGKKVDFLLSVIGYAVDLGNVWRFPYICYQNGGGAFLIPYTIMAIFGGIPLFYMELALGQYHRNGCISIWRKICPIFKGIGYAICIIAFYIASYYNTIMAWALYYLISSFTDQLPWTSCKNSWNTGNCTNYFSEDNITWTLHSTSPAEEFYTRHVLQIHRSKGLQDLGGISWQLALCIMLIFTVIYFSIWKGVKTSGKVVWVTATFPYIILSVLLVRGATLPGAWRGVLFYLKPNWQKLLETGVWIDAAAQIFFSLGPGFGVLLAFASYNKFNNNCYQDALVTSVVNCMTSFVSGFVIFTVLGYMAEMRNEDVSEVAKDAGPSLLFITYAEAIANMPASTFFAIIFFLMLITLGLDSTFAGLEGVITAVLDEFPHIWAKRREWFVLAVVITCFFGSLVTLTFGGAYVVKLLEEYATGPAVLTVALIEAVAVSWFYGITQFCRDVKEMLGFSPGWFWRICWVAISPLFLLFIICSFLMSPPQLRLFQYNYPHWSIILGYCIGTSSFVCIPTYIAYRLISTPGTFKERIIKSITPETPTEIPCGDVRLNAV
pIC50: −log10 of the molar value.
# pIC50 annotations
Endpoint: pIC50

Molecule	Endpoint	Rel	Measured Result
COC(=O)[C@@H]1C2CCC(C[C@H]1c1ccc(Cl)c(F)c1)[S+]2[O-] (stereo not given in full)	pIC50	<	4.85
COC(=O)C1=C(c2ccc(Br)cc2)CC2CCC1S2 (stereo not given)	pIC50	<	4.60
COC(=O)[C@@H]1[C@H]2CCC(C[C@H]1c1ccc(Cl)c(Cl)c1)O2	pIC50	=	7.51
COC(=O)[C@@H]1C2CCC(C[C@H]1c1ccc(F)cc1)S2 (stereo not given in full)	pIC50	<	4.96
COC(=O)[C@@H]1C2CCC(C[C@H]1c1ccc(Br)cc1)[S+]2[O-] (stereo not given in full)	pIC50	<	4.62
COC(=O)[C@H]1[C@@H](c2ccc(Cl)c(Cl)c2)CC2CC[C@H]1N2C	pIC50	=	8.60
COC(=O)[C@@H]1C2CCC(C[C@H]1c1ccc(F)c(F)c1)[S+]2[O-] (stereo not given in full)	pIC50	<	4.16
COC(=O)C1=C(c2ccc(Cl)c(Cl)c2)CC2CC[C@@H]1N2C	pIC50	=	5.72
COC(=O)C1=C(c2ccc(F)c(F)c2)CC2CCC1S2 (stereo not given)	pIC50	<	5.00
COC(=O)[C@@H]1C2CCC(C[C@H]1c1ccc(Cl)c(Cl)c1)S2 (stereo not given in full)	pIC50	=	7.00
